biological target: Integrin alpha-IIb/beta-3 (Homo sapiens, UniProt P05106+P08514); test: Inhibitory concentration against alpha IIb beta-3 receptor; format: protein-complex assay
Sequence (P05106 27-788 limits assumed): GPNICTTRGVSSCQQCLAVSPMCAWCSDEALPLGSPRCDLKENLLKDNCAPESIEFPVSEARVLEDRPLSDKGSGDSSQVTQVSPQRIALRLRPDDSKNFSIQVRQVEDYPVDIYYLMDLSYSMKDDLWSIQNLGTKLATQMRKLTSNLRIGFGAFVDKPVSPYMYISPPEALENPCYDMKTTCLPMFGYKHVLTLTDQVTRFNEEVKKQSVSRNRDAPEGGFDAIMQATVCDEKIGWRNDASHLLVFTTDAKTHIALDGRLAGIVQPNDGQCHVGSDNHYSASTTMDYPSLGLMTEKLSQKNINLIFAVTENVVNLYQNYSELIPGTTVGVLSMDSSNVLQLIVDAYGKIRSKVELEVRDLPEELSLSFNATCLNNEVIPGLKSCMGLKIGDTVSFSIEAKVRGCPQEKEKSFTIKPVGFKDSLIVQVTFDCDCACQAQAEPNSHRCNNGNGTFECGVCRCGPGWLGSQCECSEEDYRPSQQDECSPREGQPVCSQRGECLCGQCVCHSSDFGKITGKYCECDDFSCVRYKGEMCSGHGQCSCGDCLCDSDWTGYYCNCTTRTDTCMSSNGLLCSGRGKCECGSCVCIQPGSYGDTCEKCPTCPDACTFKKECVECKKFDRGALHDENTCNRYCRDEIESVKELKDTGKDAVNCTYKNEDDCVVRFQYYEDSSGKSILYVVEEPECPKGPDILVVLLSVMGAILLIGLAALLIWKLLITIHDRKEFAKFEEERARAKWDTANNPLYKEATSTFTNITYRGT
Sequence (P08514 32-887 limits assumed): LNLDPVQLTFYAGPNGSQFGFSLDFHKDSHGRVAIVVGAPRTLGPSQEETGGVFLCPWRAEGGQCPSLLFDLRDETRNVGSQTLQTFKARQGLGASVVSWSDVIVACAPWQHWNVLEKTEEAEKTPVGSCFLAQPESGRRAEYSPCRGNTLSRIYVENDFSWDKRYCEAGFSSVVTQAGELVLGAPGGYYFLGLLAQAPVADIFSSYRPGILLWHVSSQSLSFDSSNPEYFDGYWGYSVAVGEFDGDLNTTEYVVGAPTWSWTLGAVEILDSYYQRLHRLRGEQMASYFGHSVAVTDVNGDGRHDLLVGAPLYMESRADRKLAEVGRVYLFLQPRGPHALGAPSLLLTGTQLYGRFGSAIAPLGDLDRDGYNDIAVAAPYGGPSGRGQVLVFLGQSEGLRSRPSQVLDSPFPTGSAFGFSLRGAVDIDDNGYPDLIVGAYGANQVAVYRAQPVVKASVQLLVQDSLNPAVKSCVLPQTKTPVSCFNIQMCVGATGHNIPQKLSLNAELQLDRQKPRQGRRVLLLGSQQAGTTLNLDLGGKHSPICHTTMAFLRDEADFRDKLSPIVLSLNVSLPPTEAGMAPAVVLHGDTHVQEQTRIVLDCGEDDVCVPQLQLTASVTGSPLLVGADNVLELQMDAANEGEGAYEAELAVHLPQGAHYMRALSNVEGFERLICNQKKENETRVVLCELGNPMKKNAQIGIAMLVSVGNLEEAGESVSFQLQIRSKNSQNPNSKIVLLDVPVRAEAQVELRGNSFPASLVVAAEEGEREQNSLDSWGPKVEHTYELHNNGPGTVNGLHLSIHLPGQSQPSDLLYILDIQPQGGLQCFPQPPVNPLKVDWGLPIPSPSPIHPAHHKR
Sequence (P08514 891-1039 limits assumed): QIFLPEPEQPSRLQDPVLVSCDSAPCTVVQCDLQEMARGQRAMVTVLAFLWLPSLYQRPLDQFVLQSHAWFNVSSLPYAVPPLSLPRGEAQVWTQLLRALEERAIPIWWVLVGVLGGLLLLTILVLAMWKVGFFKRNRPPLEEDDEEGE
pIC50: −log10 of the molar value.
Observation Type: pIC50

INSERT INTO assay_data (molecular_string, observation_type, result_value) VALUES
  ('N=C(N)N1CCN(c2ccc(C(=O)NC[C@H](NS(=O)(=O)c3c(O)ccc4ccccc34)C(=O)O)cc2[N+](=O)[O-])CC1', 'pIC50', 7.85);

---

molecular target: Bile acid receptor (Homo sapiens); test: Effective concentration towards farnesoid X receptor (FXR); Range is 5-10 uM
Sequence (Q96RI1 whole entry): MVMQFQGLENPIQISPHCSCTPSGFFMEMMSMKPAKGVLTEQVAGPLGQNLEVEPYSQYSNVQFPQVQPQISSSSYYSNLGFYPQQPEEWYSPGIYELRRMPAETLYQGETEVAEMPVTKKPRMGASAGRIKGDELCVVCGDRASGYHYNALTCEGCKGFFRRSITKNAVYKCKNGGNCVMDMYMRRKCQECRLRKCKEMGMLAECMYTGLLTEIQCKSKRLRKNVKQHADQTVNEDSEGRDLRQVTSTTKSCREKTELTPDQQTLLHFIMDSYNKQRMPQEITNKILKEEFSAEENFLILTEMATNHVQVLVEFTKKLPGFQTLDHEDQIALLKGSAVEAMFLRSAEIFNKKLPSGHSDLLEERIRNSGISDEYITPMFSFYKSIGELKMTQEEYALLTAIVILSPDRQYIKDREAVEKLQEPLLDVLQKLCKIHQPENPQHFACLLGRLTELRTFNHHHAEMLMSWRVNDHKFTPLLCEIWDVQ
pEC50: −log10 of the molar value.
Observation Type: pEC50

INSERT INTO measurements (molecular_string, result_value) VALUES
  ('COc1c(CN(C(=O)C2CC2)c2ccccc2)ccc2c1OC(C)(C)C=C2', 5.00);

---

system: MOLT-4; assay: Inhibitory concentration against MOLT-4 human T-cells; 10e-12; assay type: functional, cell-based
pIC50: −log10 of the molar value.
Listing of entries alongside the reported pIC50.
Observation Type: pIC50

INSERT INTO assay_data (molecule, comparator, result_value) VALUES
  ('CCNC1COC(OC2C(O[C@H]3C#C/C=C\C#C[C@@](C)(O)C(=C/CSC(C)=O)/C3=C(\NC(=O)OC)C(C)=O)OC(C)C(NOC3CC(O)C(SC(=O)c4c(C)c(I)c(OC5OC(C)C(O)C(OC)C5O)c(OC)c4OC)C(C)O3)C2O)CC1OC (some centres not stated)', '>', 12.00),
  ('COC(=O)N/C(C)=C1/C(=C/CSSSC)[C@@](O)(CC=O)C#C/C=C\C#C[C@@H]1O', '=', 11.92);

---

Observed IC50 for Mycothiol S-conjugate amidase (Mycobacterium tuberculosis), reported per entry below.
Observation Type: IC50 (µM)

INSERT INTO measurements (molecular_string, observation_type, uom, result_value) VALUES
  ('Nc1ccc(SSCCNC(=O)/C(Cc2cccc(Br)c2)=N/O)cc1', 'IC50', 'µM', 185),
  ('O=C(NCCSSc1ccc(F)cc1)/C(Cc1cc(F)cc(F)c1)=N/O', 'IC50', 'µM', 2720),
  ('O=C(NCCSSc1ccc(F)cc1)/C(Cc1cccc(Br)c1)=N/O', 'IC50', 'µM', 90),
  ('Nc1ccc(SSCCNC(=O)/C(Cc2ccc(O)c(Cl)c2)=N/O)cc1', 'IC50', 'µM', 35);
